- Test system: P. aeruginosa (IFO 3445)
- Test description: Minimum inhibitory concentration, standard method of the Japan Society of Chemotherapy
- Type: cell-based
- Stated conditions: Pseudomonas aeruginosa, IFO3445

Compound | MIC / µg/mL
Nc1c(F)c(N2CCC(N)C2)c(F)c2c1c(=O)c(C(=O)O)cn2C1COC1 (centres unmarked) | 0.78
CC1CN(c2c(F)cc3c(=O)c(C(=O)O)cn(C4COC4)c3c2F)CCN1 (centres unmarked) | 1.56
COc1c(N2CCC(N(C)C)C2)c(F)cc2c(=O)c(C(=O)O)cn(C3COC3)c12 (centres unmarked) | 12.5
CCNCC1CCN(c2c(F)cc3c(=O)c(C(=O)O)cn(C4COC4)c3c2F)C1 (centres unmarked) | 6.25
NC1CCN(c2c(F)cc3c(=O)c(C(=O)O)cn(C4COC4)c3c2F)C1 (centres unmarked) | 1.56
NC1CCN(c2cc3c(cc2F)c(=O)c(C(=O)O)cn3C2COC2)C1 (centres unmarked) | 1.56
O=C(O)c1cn(C2COC2)c2c(F)c(N3CCC(O)CC3)c(F)cc2c1=O | 6.25
Nc1c(F)c(N2CCN(O)CC2)c(F)c2c1c(=O)c(C(=O)O)cn2C1COC1 | 6.25
